B1: C10orf62 (parent)
chain: RALEEVEMKLQKNFLTQRENTIAG

Variants of: B1
assay remarks: protein stability index of a GFP-peptide fusion (GPS, HEK-293T) (PSI 1-6); higher = more stable;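 also: lentivirally expressed fusions sorted by FACS into six bins by GFP to DsRed ratio, PSI derived from sequencing read proportions per bin multiplied by bin number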
details: c terminus: a fixed tail appended
1 means recorded protein stability index is 3 or above; 0 means it is below 3.

Example entries begin here.
RALEEVEMKLQKNFLTQRENTTAG [I22T]
1
RALEEVEMKLQTNFLTQRENTIAG [K12T]
1
RALEEVELKLQKNFLTQRENTIAG [M8L]
1
RALEVVEMKLQKNFLTQRENTIAG [E5V]
0
RALEEVEMKLSKNFLTQRENTIAG [Q11S]
1

INPUT: Check this variant for protein stability index at or above 3: RALEEVEMKLQKNFLTQRQNTIAG [E19Q]
OUTPUT: 0

INPUT: Quick check, protein stability index >= 3? RALEEVEMKLQKNFLTQTENTIAG [R18T]
OUTPUT: 1

INPUT: Determine whether measured protein stability index meets or exceeds 3 for RALEEVEMKLQKNFLTCRENTIAG [Q17C]
OUTPUT: 1

INPUT: Exam item: decide whether the reported protein stability index for RILEEVEMKLQKNFLTQRENTIAG [A2I] is at least 3.
OUTPUT: 0

INPUT: Does protein stability index meet or surpass 3 for RANEEVEMKLQKNFLTQRENTIAG [L3N] ?
OUTPUT: 1

INPUT: Form field: protein stability index at least 3? Entry: RALEEVEMKLQKNFLTQRENYIAG [T21Y]
OUTPUT: 0

INPUT: Test whether the variant RALREVEMKLQKNFLTQRENTIAG [E4R] records protein stability index of 3 or higher.
OUTPUT: 1

INPUT: Tell me whether protein stability index is at least 3 here: RALEEVEMKLQKNFLTQRPNTIAG [E19P]
OUTPUT: 0

INPUT: // inclusive: protein stability index at least 3? input: RALEEVEMKLQKNFLTFRENTIAG [Q17F]
OUTPUT: 0

INPUT: Hello, I need to know if SALEEVEMKLQKNFLTQRENTIAG [R1S] has measured protein stability index not below 3. Thanks!
OUTPUT: 1

INPUT: Please tell me: is the variant RALEEVEDKLQKNFLTQRENTIAG [M8D] at or over 3 in terms of protein stability index?
OUTPUT: 1

// data source = the supplement of paper PMC10567573
